These measurements were taken from PubChem BioAssay.

assay: TLR3 IRF3 reporter activation blockers – cell-based, poly I:C stimulus, luciferase, 10K MLSCN set, primary screen (AID 602277); details: HEK293-TLR3 RL24 IRF3 luciferase reporter, at 10 µM, hits give high values
The compounds listed here are annotated with their inhibition.
Measure: inhibition (%)

> print(dat)
                                    compound  observed.result
 1  CCN(CC)S(=O)(=O)c1ccc2oc(SCc3ccc(F)cc3)nc2c1            -39.5
 2                CCCNC(=O)c1ccccc1C(=O)NCCC               18
 3  Cc1nc(SCC(=O)Nc2cc(C)on2)c2c3c(sc2n1)CCCC3             11.9
 4  c1ccc(CC2CCN(c3nc4ccccc4n4nnnc34)CC2)cc1             13.6
 5      Clc1ccc(OCc2nc(-c3ccccn3)no2)c(Br)c1             -134
 6  C=CCn1c(SCC(=O)NCCCC)nc2scc(-c3ccco3)c2c1=O             28.9
 7    COc1c(S(=O)(=O)n2nc(C)cc2C)ccc(Cl)c1Cl             15.5
 8  O=c1[nH]c2ccc(Br)cc2c(-c2ccccc2)c1N1CCOCC1            -16.4
 9          COc1nc(C)ccc1-c1noc(-c2ccncc2)n1            -82.9
10              COc1ccc2ccccc2c1CN1CCN(C)CC1             27.9
11  COc1ccc(CN(CC(=O)NCC2CCCO2)C(=O)CNS(=O)(=O)c2ccc(C)cc2)cc1 (stereo not drawn)             3.49
12       COc1ccccc1NC(=O)N1CCN(c2ccccc2F)CC1            -4.11
13  Cc1cc(C)nc(N(C#N)CC(=O)N2CCC(C(N)=O)CC2)n1             13.3
14  Cc1ccc(S(=O)(=O)C2(C(=O)Nc3nccs3)CC2)cc1             32.7
15  COC(=O)C(CC(C)C)NC(=O)CSc1nc(-c2ccccc2)c(C#N)c(=O)[nH]1 (stereo not drawn)             28.8
16    CCOc1cc(C(=O)N(C)c2ccccc2)cc(OCC)c1OCC             32.8
17  N#C/C(=C(/O)COC(=O)CCC1CCCCC1)c1nc2ccccc2[nH]1             24.8
18  Cc1ccc(NC(=O)CC2C(=O)NC3CCCCC3N2C(=O)c2ccc(F)cc2)cc1C (stereo not drawn)             15.6
19          O=C(CC(=O)c1cc(Cl)ccc1O)c1ccccc1            -67.7
20        Cc1cc2nc(-c3ccco3)cc(C(F)(F)F)n2n1             18.3
21  CCN(c1c(C)n(C)n(-c2ccccc2)c1=O)S(C)(=O)=O             24.6
22    Cc1occc1-c1nnc(SCC(=O)N2CCc3ccccc32)o1             5.93
23  O=C(OCCCCN1C(=O)c2ccccc2C1=O)c1n[nH]c2ccccc12            -4.95
